target: human M1 receptor (Homo sapiens, UniProt P11229); assay: In vitro functional assay of muscarinic acetylcholine receptor activity (aequorin calcium flux, antagonist mode vs EC80 acetylcholine), M1; conditions: CHO-K1 cells stably expressing human M1 receptor with Aequorin; decrease in EC80 acetylcholine response
Sequence (P11229 whole entry): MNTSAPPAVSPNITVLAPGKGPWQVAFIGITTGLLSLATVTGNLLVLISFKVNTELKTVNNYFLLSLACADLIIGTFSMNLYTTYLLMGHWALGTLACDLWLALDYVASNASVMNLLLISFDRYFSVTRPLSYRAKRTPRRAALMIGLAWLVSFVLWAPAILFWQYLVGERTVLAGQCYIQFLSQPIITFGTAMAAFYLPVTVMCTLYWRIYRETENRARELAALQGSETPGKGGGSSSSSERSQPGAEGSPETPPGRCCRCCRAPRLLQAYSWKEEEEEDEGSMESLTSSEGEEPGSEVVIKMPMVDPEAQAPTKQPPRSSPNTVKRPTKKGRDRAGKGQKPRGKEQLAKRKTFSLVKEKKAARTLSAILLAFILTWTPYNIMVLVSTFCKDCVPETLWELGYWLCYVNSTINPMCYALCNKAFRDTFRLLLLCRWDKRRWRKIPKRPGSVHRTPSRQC
pIC50: −log10 of the molar value.

[
  {
    "compound": "Cc1cc(N2CCN3C(=O)C(CCCc4cccc5ncnn45)C[C@H]3C2)ncc1F (mixture of isomers) [Example 42]",
    "experimental.target": "human M1 receptor (Homo sapiens, UniProt P11229)",
    "pIC50": "< 5.00"
  },
  {
    "compound": "Nc1cc(N2CCN3C(=O)[C@@H](CCCc4cccc5ncsc45)C[C@H]3C2)ccn1 [Example 30]",
    "experimental.target": "human M1 receptor (Homo sapiens, UniProt P11229)",
    "pIC50": "> 7.00"
  },
  {
    "compound": "N#Cc1ccc(N2CCN3C(=O)[C@@H](CCCc4cccc(F)c4C4CC4)C[C@H]3C2)nc1 [Example 25]",
    "experimental.target": "human M1 receptor (Homo sapiens, UniProt P11229)",
    "pIC50": "> 7.00"
  },
  {
    "compound": "COc1ccc(N2CCN3C(=O)C(CCCc4cccn5ncnc45)C[C@H]3C2)nc1 (mixture of isomers) [Example 72]",
    "experimental.target": "human M1 receptor (Homo sapiens, UniProt P11229)",
    "pIC50": "> 7.00"
  },
  {
    "compound": "O=C1[C@@H](CCCc2cccc3ncnn23)C[C@H]2CN(c3ccc(CO)cn3)CCN12 [Example 53]",
    "experimental.target": "human M1 receptor (Homo sapiens, UniProt P11229)",
    "pIC50": "> 7.00"
  },
  {
    "compound": "O=C1[C@@H](CCCc2c(F)ccn3ncnc23)C[C@H]2CN(c3ccc(F)cn3)CCN12 [Example 78]",
    "experimental.target": "human M1 receptor (Homo sapiens, UniProt P11229)",
    "pIC50": "> 7.00"
  },
  {
    "compound": "O=C1[C@@H](CCCc2cccc3ncsc23)C[C@H]2CN(c3cccnc3)CCN12 [Example 26]",
    "experimental.target": "human M1 receptor (Homo sapiens, UniProt P11229)",
    "pIC50": "6.00 to 7.00"
  },
  {
    "compound": "O=C1C(CCCc2cccc3ncsc23)CC2CN(c3ccncc3F)CCN12 (racemic) [Example 6]",
    "experimental.target": "human M1 receptor (Homo sapiens, UniProt P11229)",
    "pIC50": "6.00 to 7.00"
  }
]
